- Tested on: Escherichia coli
- EXPERIMENT_NOTES: Antimicrobial activity against Escherichia coli expressing beta-lactamase NDM-5 by CLSI broth microdilution method
- Assay type: functional
MEASURED_PARAMETER: MIC (µg/mL)
Give bare numbers, in µg/mL.

Some solved entries appear below for comparison.
NC(=O)OC[C@@H]1[C@H](NC(=O)/C(=N\OCC(=O)O)c2csc(N)n2)C(=O)N1S(=O)(=O)O | 0.125
NC[C@@H]1CN(C[C@@H]2[C@H](NC(=O)/C(=N\OC3(C(=O)O)CC3)c3csc(N)n3)C(=O)N2S(=O)(=O)O)C(=O)O1 (stereo in doubt) | 0.25
C[C@@H](O)[C@H]1C(=O)N2C(C(=O)O)=C(S[C@@H]3CN[C@H](C(=O)N(C)C)C3)[C@H](C)[C@H]12 | 64

Please look at the following compound next.
Query: Item under review: CC1(C)[C@H](NC(=O)/C(=N\OCc2cc(=O)c(O)cn2O)c2csc(N)n2)C(=O)N1OS(=O)(=O)O (stereo in doubt) . Reported MIC?
Result: 0.125
